Tested on: 628569-122-R-J1-PDC complex spheroid viability
Assay: Anticancer human tumor 628569-122-R-J1-PDC patient-derived head and neck squamous carcinoma cell line growth inhibition [CLK]
Conditions: curve of first compound; second compound 0.0316 µM
Source text: A high-throughput screen of multi-cell type tumor spheroids was designed to identify active combinations of […] and targeted small molecules. Complex spheroids include a stromal component modeled by human endothelial cells (HUVEC) and fibroblasts modeled by human mesenchymal stem cells (MSCs). […] Compounds. […] If the clinical Cmax for an agent had not been determined, the highest concentration tested was 10 microM. […]
endpoint: IC50

C=CC(=O)Nc1cc(Nc2nccc(-c3cn(C)c4ccccc34)n2)c(OC)cc1N(C)CCN(C)C + CNC(=O)c1ccc(Nc2nc(OC3CCCC3)c3c(-c4ccc5nc(C)oc5c4)c[nH]c3n2)c(OC)c1 : > 300 nM
C=CC(=O)Nc1cc(Nc2nccc(-c3cn(C)c4ccccc34)n2)c(OC)cc1N(C)CCN(C)C + CN1CCN(c2cc(C(=O)Nc3cc4cc(-c5cnn(C)c5)ccc4cn3)ccn2)CC1 : > 300 nM
O=c1[nH]cc(F)c(=O)[nH]1 + CNC(=O)c1ccc(Nc2nc(OC3CCCC3)c3c(-c4ccc5nc(C)oc5c4)c[nH]c3n2)c(OC)c1 : > 10000 nM
C=CC(=O)N1CCN(c2nc(=O)n(-c3c(C)ccnc3C(C)C)c3nc(-c4c(O)cccc4F)c(F)cc23)C(C)C1 (stereo not given) + CN1CCN(c2cc(C(=O)Nc3cc4cc(-c5cnn(C)c5)ccc4cn3)ccn2)CC1 : > 10000 nM

Next:
Entry Cn1ncnc1[C@H]1c2n[nH]c(=O)c3cc(F)cc(c23)N[C@@H]1c1ccc(F)cc1 + CNC(=O)c1ccc(Nc2nc(OC3CCCC3)c3c(-c4ccc5nc(C)oc5c4)c[nH]c3n2)c(OC)c1 : reported IC50 = ?
> 100 nM

* * *

tested on: 628569-122-R-J1-PDC complex spheroid viability; assay: Anticancer human tumor 628569-122-R-J1-PDC cell line growth inhibition [CLK]; settings: second compound 10 µM; first compound 3.16 µM; stronger effect = lower value;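 also: spheroids exposed to agents for seven days before readout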;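 as to viability, T/C: 100% = DMSO vehicle control viability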
The label is class 1 for viability, T/C below 10% and class 0 for viability, T/C equal to or exceeding 10%.

Check out these entries, answers already filled in.
CC(=O)O[C@H]1C(=O)[C@@]2(C)[C@H]([C@H](OC(=O)c3ccccc3)[C@]3(O)C[C@H](OC(=O)[C@H](O)[C@@H](NC(=O)c4ccccc4)c4ccccc4)C(C)=C1C3(C)C)[C@]1(OC(C)=O)CO[C@@H]1C[C@@H]2O + CN1CCN(c2cc(C(=O)Nc3cc4cc(-c5cnn(C)c5)ccc4cn3)ccn2)CC1 : class 1
C=C(F)C(=O)N1CCN(c2nc(OCC3CCCN3C)nc3c2CCN(c2cccc4cccc(Cl)c24)C3)CC1CC#N (stereo not drawn) + CNC(=O)c1ccc(Nc2nc(OC3CCCC3)c3c(-c4ccc5nc(C)oc5c4)c[nH]c3n2)c(OC)c1 : class 0
COc1cccc2c1C(=O)c1c(O)c3c(c(O)c1C2=O)CC(O)(C(=O)CO)CC3OC1CC(N)C(O)C(C)O1 (stereo not drawn) + CNC(=O)c1ccc(Nc2nc(OC3CCCC3)c3c(-c4ccc5nc(C)oc5c4)c[nH]c3n2)c(OC)c1 : class 0
COc1ccc([C@@H](O)c2cc(-c3ncnc4cc(N5CCOCC5)ccc34)c(F)cc2Cl)nn1 + CN1CCN(c2cc(C(=O)Nc3cc4cc(-c5cnn(C)c5)ccc4cn3)ccn2)CC1 : class 1
CCCS(=O)(=O)Nc1ccc(F)c(C(=O)c2c[nH]c3ncc(-c4ccc(Cl)cc4)cc23)c1F + CNC(=O)c1ccc(Nc2nc(OC3CCCC3)c3c(-c4ccc5nc(C)oc5c4)c[nH]c3n2)c(OC)c1 : class 0

Is the reported viability, T/C for CC1(C)CCC(CN2CCN(c3ccc(C(=O)NS(=O)(=O)c4ccc(NCC5CCOCC5)c([N+](=O)[O-])c4)c(Oc4cnc5[nH]ccc5c4)c3)CC2)=C(c2ccc(Cl)cc2)C1 + CN1CCN(c2cc(C(=O)Nc3cc4cc(-c5cnn(C)c5)ccc4cn3)ccn2)CC1 strictly below 10%?
class 1

Is the reported viability, T/C for Nc1ccn(C2OC(CO)C(O)C2(F)F)c(=O)n1 (stereo not drawn) + CNC(=O)c1ccc(Nc2nc(OC3CCCC3)c3c(-c4ccc5nc(C)oc5c4)c[nH]c3n2)c(OC)c1 strictly below 10%?
class 0
